- Test system: SF-539 CNS
- PROCEDURE_TEXT: NCI-60 one-dose screen, 48 h (100 = growth as untreated, 0 = no growth, -100 = all killed)
- MEASUREMENT_SETUP: 10 µM unless noted
- Description: Cells are grown in 96 well plates and exposed to the test compound for 48 hours. Compounds are tested at a single concentration, which is 10^-5 M for most compounds. The reported endpoint is percent growth (GI% or GIPRCNT), where numbers from 0 - 100% represent growth inhibition, and numbers from -100% - 0 represent cell death. For example, a value of 40 represents 60% growth inhibition. A value of 0 means no net growth occurred over the course of the experiment. […]
About 83,000 compounds went through this panel and 20% of them were active in at least one assay; those are over-represented in the sample as a whole.
Exercise: state measured growth for each of the compounds provided.
Write the answer as a number in %, unit excluded.

QUERY: Consider the compound shown here: N#Cc1c(-c2ccc(O)cc2)c2c(N)nn(-c3ccccc3)c2[nH]c1=O What is its recorded growth?
RESULT: 95.7

QUERY: Consider the compound shown here: O=C(/C=C/c1cccc(O)c1)c1ccccc1O What is its recorded growth?
RESULT: 102

QUERY: Consider the compound shown here: COc1ccc(/C=C(\C#N)c2cc3ccccc3n2C(C)=O)cc1 What is its recorded growth?
RESULT: 93.8

QUERY: Consider the compound shown here: Cn1cc(-c2csc(-c3cn(CCN)c4ccc(F)cc34)n2)c2cccnc21 What is its recorded growth?
RESULT: 80.1

QUERY: Consider the compound shown here: COc1ccc(C2(Cl)c3ccccc3N(c3ccccc3)c3ccccc32)cc1 What is its recorded growth?
RESULT: -20.3

QUERY: Consider the compound shown here: C=C(C)[C@@H]1CC[C@]2(C(=O)NNC(=O)c3cccnc3)CC[C@]3(C)[C@H](CC[C@@H]4[C@@]5(C)CCCNC(C)(C)[C@@H]5CC[C@]43C)[C@@H]12 What is its recorded growth?
RESULT: 81.3

QUERY: Consider the compound shown here: CCc1cccc(CC)c1NC(=O)c1sc2nc3c(cc2c1N)CCCC3 What is its recorded growth?
RESULT: 74.5

QUERY: Consider the compound shown here: Cc1nn2c(-c3nc4cc(Cl)c(Cl)cc4[nH]3)c(-c3ccc(F)cc3)nc2s1 What is its recorded growth?
RESULT: 6.21

QUERY: Consider the compound shown here: O=C1c2ccccc2NC(c2cn(-c3ccccc3)nc2-c2cccs2)N1Cc1ccccc1 (stereo not drawn) What is its recorded growth?
RESULT: 88.5

QUERY: Consider the compound shown here: Cc1cc(N2CCOCC2)nc(N(CCCNc2ccnc3cc(Cl)ccc23)Cc2ccco2)n1 What is its recorded growth?
RESULT: -2.57

QUERY: Consider the compound shown here: COc1ccc(C2c3ccccc3NC(=O)N2C2CCN(C)CC2)c(OC)c1 (stereo not drawn) What is its recorded growth?
RESULT: 95.2

QUERY: Consider the compound shown here: COc1ccc(/C=C(\C#N)c2cc3ccccc3n2S(C)(=O)=O)cc1 What is its recorded growth?
RESULT: 79.1

QUERY: Consider the compound shown here: COc1ccc(-c2nc(SCC(=O)Nc3ccc(C(C)=O)cc3)[nH]c(=O)c2C#N)cc1 What is its recorded growth?
RESULT: 97.6

QUERY: Consider the compound shown here: COc1cccc(-c2nn(-c3ccccc3)cc2-c2ccnc(NCCNS(=O)(=O)c3cccc(F)c3)c2)c1 What is its recorded growth?
RESULT: 52.3

QUERY: Consider the compound shown here: Cc1cc(N2CCCCC2)nc(N(CCNc2ccnc3cc(Cl)ccc23)Cc2ccco2)n1 What is its recorded growth?
RESULT: 30.7

QUERY: Consider the compound shown here: C[C@H]1OC(=O)/C=C/[C@@H](O)[C@@H](O)CCCCCCCC[C@@H]1O What is its recorded growth?
RESULT: 97.7

QUERY: Consider the compound shown here: COC(=O)[C@]12CC[C@@H](C(=O)/C=C/c3cccnc3)[C@@H]1[C@H]1CC[C@@H]3[C@@]4(C)C/C(=C/c5cccnc5)C(=O)C(C)(C)[C@@H]4CC[C@@]3(C)[C@]1(C)CC2 What is its recorded growth?
RESULT: -96.5

QUERY: Consider the compound shown here: C=C(C)[C@@H]1CC[C@]2(c3nnc(-c4ccncc4)o3)CC[C@]3(C)[C@H](CC[C@@H]4[C@@]5(C)CCC(=O)NC(C)(C)[C@@H]5CC[C@]43C)[C@@H]12 What is its recorded growth?
RESULT: 96.9
